Counter-ions that a name gives are not always drawn.
mTor kinase (Homo sapiens (Human)) measurements of IC50, listed per entry.
# number only, unit µM dropped from output

Would you please look over these solved cases?
MOLECULE	ASSAY_TARGET	IC50 / µM
N#Cc1cccc(S(=O)(=O)c2cc(-c3cnc(N)nc3)cc(N3CCOCC3)c2)c1	mTor kinase (Homo sapiens (Human))	10
O=S(=O)(Cc1ccccc1)c1cc(-c2cnc(NCCO)nc2)cc(N2CCOCC2)c1	mTor kinase (Homo sapiens (Human))	12.2
CCNC(=O)N1CC(S(=O)(=O)c2cc(-c3cnc(N)nc3)cc(N3CCOCC3)c2)C1	mTor kinase (Homo sapiens (Human))	0.87

Task: Recorded IC50 for "Nc1ncc(-c2cc(S(=O)(=O)c3ccccc3)cc(N3CCOCC3)n2)cn1" with mTor kinase (Homo sapiens (Human)), please?
Output: 0.063

Task: Likewise for "Nc1ncc(-c2cc(OC3CN(C(=O)C4CC4)C3)cc(N3CCOCC3)n2)cn1" ?
Output: 2.95

Task: Likewise for CC(=O)N1CCC(S(=O)(=O)c2cc(-c3cnc(N)nc3)cc(N3CCOCC3)c2)C1 (centres unmarked) ?
Output: 2.58

Task: Likewise for CS(=O)(=O)Nc1ccc(CS(=O)(=O)c2cc(-c3cnc(N)nc3)cc(N3CCOCC3)c2)cc1 [57 (as a TFA salt)] ?
Output: 3.44

Task: Likewise for Nc1ncc(-c2cc(N3CCOCC3)cc(S(=O)(=O)CC3CCOC3)c2)cn1 (centres unmarked) ?
Output: 3.6
